Assay: qHTS for induction of synthetic lethality in tumor cells producing 2HG: qHTS for the HT-1080-NT fibrosarcoma cell line;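 also: NT is the 2HG producing partner of a matched IDH1 knockdown line; nearly all actives have a fitted effect of over 55% in size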
Settings: HT-1080-NT fibrosarcoma viability, CellTiter-Glo ATP luminescence, 48 h; series mostly up to 46.1 µM
Among all 360,000 compounds or so, about 6,000 (1.7%) were called active. About 8% were inconclusive and are not listed. Calls follow the shape of the dose curve; as a rule, active = well fitted cell-killing curve with a large enough effect; inconclusive = small, poorly fitted or top-dose-only effect, or effect the other way; inactive = flat fitted curve, though single readings scatter. What follows is part of a selection rich in actives, with near analogues and random picks from the rest.
Pick one and only one: active, inactive

[[record]]
compound = "Cc1cc(C(C)(C)C)cc(C)c1N"
discretelabel = "inactive"


What outcome does the record of this test show for CCCCCc1c(-c2ccc(OC)c(OC)c2)ncn1CCc1ccccc1OC ?
active

What outcome does the record of this test show for COc1cccc(C(NC(C)=O)c2nc(-c3ccccc3OC)cs2)c1 (centres undefined) ?
inactive

What outcome does the record of this test show for Cn1c(=O)c2c(ncn2CCc2ccccc2)n(C)c1=O ?
inactive

What outcome does the record of this test show for CCCCCc1c(Cc2ccccc2)ncn1CCc1ccccc1OC ?
active

What outcome does the record of this test show for CN1CCN(CCCNC(=O)c2ccc(/C=C3\Oc4ccccc4N(Cc4ccc(Cl)cc4)C3=O)cc2)CC1 ?
inactive

What outcome does the record of this test show for N#Cc1ccc(C(=O)Nc2nc(-c3cccs3)c(C(=O)C(F)(F)F)s2)cc1 ?
active

What outcome does the record of this test show for CC(C)[C@H](NC(=O)c1ccccc1F)C(=O)Nc1cccc(S(=O)(=O)N2CCOCC2)c1 ?
inactive

What outcome does the record of this test show for COc1ccccc1Cc1c(-c2ccc(Cl)cc2)nc2c3ccccc3ccn12 ?
inactive

What outcome does the record of this test show for COc1ccccc1CCNS(=O)(=O)c1cn(C)nc1C ?
inactive

What outcome does the record of this test show for COc1ccc(C2=NOC(C(=O)NCc3ccco3)C2)cc1OC (centres undefined) ?
active

What outcome does the record of this test show for CN(C)c1ccc(Nc2c3c4c(cccc4n(C)c2=O)C(=O)c2ccccc2-3)cc1 ?
active

What outcome does the record of this test show for O=C1C=C(c2ccc(Cl)cc2)C(=O)N1Nc1ccccc1 ?
active

What outcome does the record of this test show for COc1ccc(-c2cc(C)nc3nc(N)nn23)cc1 ?
inactive

What outcome does the record of this test show for CCN(CC)CCCSc1nc2ccccc2s1 ?
inactive

What outcome does the record of this test show for CCC(=O)NCc1cc(-c2nn(C)c(=O)c3ccccc23)ccc1OC ?
inactive

What outcome does the record of this test show for O=C(NC(=O)c1ccccc1)Nc1ccccc1O ?
inactive

What outcome does the record of this test show for COc1ccc(-c2nn(-c3ccccc3)cc2C(=O)Nc2nccs2)cc1OC ?
inactive

What outcome does the record of this test show for O=C(NNS(=O)(=O)c1ccc(F)cc1)c1ccc([N+](=O)[O-])cc1Cl ?
inactive

What outcome does the record of this test show for O=C(Nc1ccc(Cl)cc1)c1csc([C@@H]2O[C@H](CO)[C@H](O)[C@H](O)[C@H]2O)n1 ?
inactive

What outcome does the record of this test show for COc1cc(NC(=O)C2=C(C)OCCS2)c(Cl)cc1C(=O)NCCCN1CCCC(C)C1 (centres undefined) ?
inactive

Measured values drawn from PubChem BioAssay AID686970 for this set.
